Source: patent US20090131503A1

target: human NET (Homo sapiens, UniProt P23975); construct: expressed in transfected cells; test: Human norepinephrine transporter assay, [3H]nisoxetine binding to cell membrane homogenates; settings: Table 2; compounds tested as hydrochloride salts; read-out: IC50, Human NET activity
Sequence (P23975 whole entry): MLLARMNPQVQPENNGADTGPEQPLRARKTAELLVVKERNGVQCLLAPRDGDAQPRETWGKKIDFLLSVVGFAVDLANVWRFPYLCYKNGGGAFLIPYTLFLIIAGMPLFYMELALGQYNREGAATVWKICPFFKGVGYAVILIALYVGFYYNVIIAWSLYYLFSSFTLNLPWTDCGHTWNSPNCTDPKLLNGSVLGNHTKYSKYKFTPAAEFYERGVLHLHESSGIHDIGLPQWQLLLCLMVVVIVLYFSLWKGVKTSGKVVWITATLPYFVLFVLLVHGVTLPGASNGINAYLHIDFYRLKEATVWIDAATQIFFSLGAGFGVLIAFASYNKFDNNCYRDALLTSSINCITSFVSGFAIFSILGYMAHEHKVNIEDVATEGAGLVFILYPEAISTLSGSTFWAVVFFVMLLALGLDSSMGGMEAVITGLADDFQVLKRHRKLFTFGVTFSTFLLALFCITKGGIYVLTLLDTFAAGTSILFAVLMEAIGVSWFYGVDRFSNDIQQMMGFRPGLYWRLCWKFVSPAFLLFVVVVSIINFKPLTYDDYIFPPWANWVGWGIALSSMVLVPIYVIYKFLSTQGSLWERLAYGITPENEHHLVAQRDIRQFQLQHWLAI
Reported metric: log10 IC50 (log10 of the value in nM)
Short version: log10 scale, IC50, nM.

CCN[C@H]1CC[C@H](c2c[nH]c3ccc(NC(=N)c4cccs4)cc32)CC1 (single isomer, unassigned) = 3.45
CNC1CC=C(c2c[nH]c3ccc(NC(=N)c4cccs4)cc23)CC1 (single isomer, unassigned) [Compound 3a] = 3.04
CCNC1CC=C(c2c[nH]c3ccc(NC(=N)c4cccs4)cc23)CC1 (racemic) [(±)-6] = 2.45
CNC1CC=C(c2c[nH]c3ccc(NC(=N)c4cccs4)cc23)CC1 (racemic) [(±)-3] = 3.11
CN[C@H]1CC[C@H](c2c[nH]c3ccc(NC(=N)c4cccs4)cc32)CC1 = 3.30

Provide value of log10 IC50 for this record tested with human NET (Homo sapiens, UniProt P23975): CNC1CCC(c2c[nH]c3ccc(NC(=N)c4cccs4)cc23)CC1 (mixture of isomers)
2.72

API: value(readout= log10 IC50, system= human NET (Homo sapiens, UniProt P23975), query= CCNC1CCC(c2c[nH]c3ccc(NC(=N)c4cccs4)cc23)CC1 (mixture of isomers) )
2.43

Item `CN[C@H]1CC[C@@H](c2c[nH]c3ccc(NC(=N)c4cccs4)cc32)CC1` with human NET (Homo sapiens, UniProt P23975) - log10 IC50?
2.60

Item: CCN[C@H]1CC[C@@H](c2c[nH]c3ccc(NC(=N)c4cccs4)cc32)CC1 (single isomer, unassigned) Test system: human NET (Homo sapiens, UniProt P23975) Read-out: log10 IC50 Value: ?
2.58

Recall the recorded log10 IC50 for CNC1CC=C(c2c[nH]c3ccc(NC(=N)c4cccs4)cc23)CC1 (single isomer, unassigned) [Compound 3b] with human NET (Homo sapiens, UniProt P23975) and state it.
3.04

---

target: human NET (Homo sapiens, UniProt P23975); construct: expressed in transfected cells; test: Human norepinephrine transporter assay, [3H]nisoxetine binding to cell membrane homogenates; details: IC50, Human NET activity, Table 2; compounds tested as hydrochloride salts
Reported metric: IC50 (nM)
// return numeric value only (unit: nM, not printed)

Before answering, review these 3 worked examples.
CN(C)C1CCC(c2c[nH]c3ccc(NC(=N)c4cccs4)cc23)CC1 (stereo not shown) = 190
CN(C)C1CC=C(c2c[nH]c3ccc(NC(=N)c4cccs4)cc23)CC1 (single isomer, unassigned) [Compound 2a] = 1100
CN(C)C1CC=C(c2c[nH]c3ccc(NC(=N)c4cccs4)cc23)CC1 (racemic) [(±)-2] = 550

Which measured IC50 value corresponds to CN(C)C1CC=C(c2c[nH]c3ccc(NC(=N)c4cccs4)cc23)CC1 (single isomer, unassigned) [Compound 2b] ?
960

---

Entries and their IC50
biological target: human NET (Homo sapiens); construct: expressed in transfected cells; assay: Human norepinephrine transporter assay, [3H]nisoxetine binding to cell membrane homogenates; conditions: IC50, Human NET, Table 3
Please state the value followed by its unit.

Tell me the measured IC50 of CNC1CCCC(c2c[nH]c3ccc(NC(=N)c4cccs4)cc23)C1 (single isomer, unassigned) [(±)-7] , please.
2.5 µM

What value of IC50 has been recorded for this entry: CNC1CCCC(c2c[nH]c3ccc(NC(=N)c4cccs4)cc23)C1 (single isomer, unassigned) [Compound 7a]
1 µM

Please look up its IC50: CNC1CCCC(c2c[nH]c3ccc(NC(=N)c4cccs4)cc23)C1 (racemic) [(±)-8]
0.88 µM

Reported IC50, compound CCNC1CCCC(c2c[nH]c3ccc(NC(=N)c4cccs4)cc23)C1 (racemic) [(±)-10] : ____
1.7 µM

Which IC50 value is on record for CCNC1CCCC(c2c[nH]c3ccc(NC(=N)c4cccs4)cc23)C1 (racemic) [(±)-9] ?
0.76 µM

Give the measured IC50 of CNC1CCCC(c2c[nH]c3ccc(NC(=N)c4cccs4)cc23)C1 (single isomer, unassigned) [Compound 7b] .
5.2 µM
